Data credit: patent US20040122089A1

Consider the following IC50 values measured on FAAH (Rattus norvegicus, UniProt P97612).
Sequence (P97612 whole entry): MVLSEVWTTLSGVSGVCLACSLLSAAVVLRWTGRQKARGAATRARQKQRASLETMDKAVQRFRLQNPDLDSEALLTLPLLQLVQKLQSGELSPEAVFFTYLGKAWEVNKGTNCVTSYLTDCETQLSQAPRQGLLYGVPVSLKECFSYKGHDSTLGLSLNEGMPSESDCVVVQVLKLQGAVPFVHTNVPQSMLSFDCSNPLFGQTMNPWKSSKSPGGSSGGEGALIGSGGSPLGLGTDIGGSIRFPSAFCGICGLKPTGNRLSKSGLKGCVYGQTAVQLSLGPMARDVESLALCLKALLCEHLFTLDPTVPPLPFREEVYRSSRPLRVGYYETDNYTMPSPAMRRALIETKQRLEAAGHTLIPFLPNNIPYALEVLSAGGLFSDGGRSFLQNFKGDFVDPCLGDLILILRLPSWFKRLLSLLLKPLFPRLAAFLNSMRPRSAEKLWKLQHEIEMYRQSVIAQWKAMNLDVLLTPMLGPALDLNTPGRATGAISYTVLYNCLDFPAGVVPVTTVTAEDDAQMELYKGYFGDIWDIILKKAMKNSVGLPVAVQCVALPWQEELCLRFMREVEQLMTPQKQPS
endpointName: IC50 (µM)

compound: CCCCC/C=C\C/C=C\C/C=C\C/C=C\CCCC(=O)N(C)Cc1ccc(O)c(OC)c1 [Compound O-1988]
relationOperator: >
valueObserved: 50
--
compound: CCCCC/C=C\C/C=C\C/C=C\C/C=C\CCCNC(=S)NCc1ccc(O)c(OC)c1 [Compound O-2095]
relationOperator: >
valueObserved: 50
--
compound: CCCCC/C=C\C/C=C\C/C=C\C/C=C\CCCC(=O)NCc1cccc(OC)c1 [Compound O-1986]
relationOperator: =
valueObserved: 18.2
--
compound: CCCCC/C=C\C/C=C\C/C=C\C/C=C\CCCC(=O)NCc1ccc(O)c(Cl)c1 [Compound O-2094]
relationOperator: =
valueObserved: 4.5
--
compound: CCCCC/C=C\C/C=C\C/C=C\C/C=C\CCCC(=O)NCc1ccc(OC(=O)CCCN2CCOCC2)c(OC)c1 [Compound O-2142]
relationOperator: =
valueObserved: 9.1
--
compound: CCCCC/C=C\C/C=C\C/C=C\C/C=C\CCCNC(=S)NCc1ccc(O)c(Cl)c1 [Compound O-2109]
relationOperator: >
valueObserved: 50
--
compound: CCCCC/C=C\C/C=C\C/C=C\C/C=C\CCCNC(=O)NCc1ccc(O)c(OC)c1 [Compound O-1987]
relationOperator: =
valueObserved: 2

* * *

target: human VR1 receptor (Homo sapiens, UniProt Q8NER1); experiment: Cytosolic calcium concentration assay in HEK-hVR1 cells (Example 3); conditions: read-out: hVR1 efficacy (maximal effect, in parentheses)
Sequence (Q8NER1 whole entry): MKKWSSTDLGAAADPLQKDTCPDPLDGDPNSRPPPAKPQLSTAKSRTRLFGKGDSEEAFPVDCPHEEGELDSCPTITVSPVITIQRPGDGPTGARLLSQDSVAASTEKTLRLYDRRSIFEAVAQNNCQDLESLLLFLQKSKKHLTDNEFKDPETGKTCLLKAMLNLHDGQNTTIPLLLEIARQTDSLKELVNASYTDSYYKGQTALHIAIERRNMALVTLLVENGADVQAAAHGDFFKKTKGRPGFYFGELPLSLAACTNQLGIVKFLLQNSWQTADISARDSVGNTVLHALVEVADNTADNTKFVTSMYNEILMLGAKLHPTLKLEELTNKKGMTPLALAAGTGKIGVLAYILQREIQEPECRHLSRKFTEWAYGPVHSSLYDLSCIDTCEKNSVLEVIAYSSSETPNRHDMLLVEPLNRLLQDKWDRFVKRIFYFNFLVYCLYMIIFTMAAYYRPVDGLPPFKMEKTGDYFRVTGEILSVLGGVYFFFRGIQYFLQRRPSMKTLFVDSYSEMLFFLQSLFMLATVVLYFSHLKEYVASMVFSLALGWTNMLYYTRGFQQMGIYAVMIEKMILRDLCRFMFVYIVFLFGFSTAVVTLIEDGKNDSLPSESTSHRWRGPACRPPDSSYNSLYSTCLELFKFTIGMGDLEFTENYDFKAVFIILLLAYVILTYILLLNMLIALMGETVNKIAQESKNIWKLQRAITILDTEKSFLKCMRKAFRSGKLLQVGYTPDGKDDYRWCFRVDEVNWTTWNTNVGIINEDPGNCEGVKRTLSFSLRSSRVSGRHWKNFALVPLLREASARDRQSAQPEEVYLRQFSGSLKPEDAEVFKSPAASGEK
Reported values of Emax for individual entries

compound: CCCCC/C=C\C/C=C\C/C=C\C/C=C\CCCNC(=S)NCc1ccc(O)c(OC)c1 [Compound O-2095]
measurementUnits: %
Emax: 72.1

compound: CCCCC/C=C\C/C=C\C/C=C\C/C=C\CCCNC(=O)NCc1ccc(O)c(OC)c1 [Compound O-1987]
measurementUnits: %
Emax: 80.6

compound: CCCCC/C=C\C/C=C\C/C=C\C/C=C\CCCC(=O)NCc1cccc(OC)c1 [Compound O-1986]
measurementUnits: %
Emax: 68

compound: CCCCC/C=C\C/C=C\C/C=C\C/C=C\CCCC(=O)NCc1ccc(O)c(Cl)c1 [Compound O-2094]
measurementUnits: %
Emax: 63.5

compound: CCCCC/C=C\C/C=C\C/C=C\C/C=C\CCCC(=O)NCc1ccc(OC(=O)CCCN2CCOCC2)c(OC)c1 [Compound O-2142]
measurementUnits: %
Emax: 86.6

compound: CCCCC/C=C\C/C=C\C/C=C\C/C=C\CCCC(=O)N(C)Cc1ccc(O)c(OC)c1 [Compound O-1988]
measurementUnits: %
Emax: 69.1

* * *

Biological target: fatty acid amide hydrolase (FAAH) (Mus musculus, UniProt O08914)
Construct: membranes prepared from N18TG2 cells; endogenous in cells; host or cells: N18TG2 cell membranes
Sequence (O08914 1-579): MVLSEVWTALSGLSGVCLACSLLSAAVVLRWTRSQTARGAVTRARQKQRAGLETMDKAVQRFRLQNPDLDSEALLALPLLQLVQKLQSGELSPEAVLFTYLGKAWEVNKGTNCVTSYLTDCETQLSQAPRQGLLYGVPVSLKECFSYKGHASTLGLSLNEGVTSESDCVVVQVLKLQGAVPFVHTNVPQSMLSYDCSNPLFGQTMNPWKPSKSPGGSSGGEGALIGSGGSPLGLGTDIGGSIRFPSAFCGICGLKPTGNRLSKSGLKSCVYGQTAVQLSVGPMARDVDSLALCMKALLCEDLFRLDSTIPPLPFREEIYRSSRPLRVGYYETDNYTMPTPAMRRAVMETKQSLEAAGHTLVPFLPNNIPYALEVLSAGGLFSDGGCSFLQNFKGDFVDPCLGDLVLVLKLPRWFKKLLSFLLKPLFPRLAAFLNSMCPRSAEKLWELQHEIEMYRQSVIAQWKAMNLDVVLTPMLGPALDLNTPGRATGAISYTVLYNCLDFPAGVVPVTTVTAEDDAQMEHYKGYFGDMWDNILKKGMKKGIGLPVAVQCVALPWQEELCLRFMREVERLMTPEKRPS
Experiment: [14C]AEA hydrolysis by N18TG2 cell membranes
Format: biochemical
pIC50: −log10 of the molar value.
pIC50 listing for selected molecules.
endpointName: pIC50

smilesCode: COc1cc(CNC(=O)CCC/C=C\C/C=C\C/C=C\C/C=C\C(C)(C)CCCCO)ccc1O
valueObserved: 4.84
//
smilesCode: CCCCCCC(C)(C)/C=C\C/C=C\C/C=C\C/C=C\CCCC(=O)NCc1ccc(O)c(OC)c1
valueObserved: < 4.30
//
smilesCode: COc1cc(CNC(=O)CCC/C=C\C/C=C\C/C=C\C/C=C\C(C)(C)CCCCC#N)ccc1O
valueObserved: 4.74
//
smilesCode: C[C@H](CO)NC(=O)CCC/C=C\C/C=C\C/C=C\C/C=C\C(C)(C)CCCCBr
valueObserved: < 4.30
//
smilesCode: COc1cc(CNC(=O)CCC/C=C\C/C=C\C/C=C\C/C=C\C(C)(C)CCCCBr)ccc1O
valueObserved: < 4.30
//
smilesCode: C[C@H](CO)NC(=O)CCC/C=C\C/C=C\C/C=C\C/C=C\C(C)(C)CCCCC#N
valueObserved: < 4.30
